Tested on: Puccinia recondita f. sp. tritici
Test: Test C: test suspension sprayed on wheat seedlings, inoculated next day with Puccinia recondita f. sp. tritici (wheat leaf rust), visual disease rating
Assay type: in vivo
Details: Rate 10 ppm test suspension, relative to the controls
Source text: General protocol for preparing test suspensions for Tests A-C: the test compounds were first dissolved in acetone in an amount equal to 3% of the final volume and then suspended at the desired concentration (in ppm) in acetone and purified water (50/50 mix by volume) containing 250 ppm of the surfactant PEG400 (polyhydric alcohol esters). The resulting test suspensions were then used in Tests A-C. The test suspension was sprayed to the point of run-off on wheat seedlings. […]
Would you kindly list Test C rating (% disease control) for each of these molecules?
Return type: number; implicit unit %.

Exercise: Need Test C rating (% disease control) of Cc1ccccc1C(O)c1ccc(-c2noc(C(F)(F)F)n2)cc1 (racemic) , thanks.
Solution: 0

Exercise: Need Test C rating (% disease control) of COC(=O)c1cnc(Oc2ccc(-c3noc(C(F)(F)F)n3)cc2)s1 , thanks.
Solution: 0

Exercise: Need Test C rating (% disease control) of O=C(NCCn1cccn1)c1csc(COc2ccc(-c3noc(C(F)(F)F)n3)cc2)n1 , thanks.
Solution: 80

Exercise: Need Test C rating (% disease control) of O=C(NC1CCC(F)(F)CC1)c1coc(Cc2ccc(-c3noc(C(F)(F)F)n3)cc2)n1 , thanks.
Solution: 97

Exercise: Need Test C rating (% disease control) of CN(CC#N)C(=O)c1cnn(Cc2ccc(-c3noc(C(F)(F)F)n3)cc2)c1 , thanks.
Solution: 97

Exercise: Need Test C rating (% disease control) of O=C(NCC(F)(F)F)c1csc(COc2ccc(-c3noc(C(F)(F)F)n3)cc2)n1 , thanks.
Solution: 94

Exercise: Need Test C rating (% disease control) of O=C(c1csc(Cc2ccc(-c3noc(C(F)(F)F)n3)cc2)n1)N1CCOCC1 , thanks.
Solution: 100

Exercise: Need Test C rating (% disease control) of CC(C)ON=Cc1cnn(Cc2ccc(-c3noc(C(F)(F)F)n3)cc2)c1 , thanks.
Solution: 100

Exercise: Need Test C rating (% disease control) of O=C(NCC(F)(F)F)c1coc(COc2ccc(-c3noc(C(F)(F)F)n3)cc2)n1 , thanks.
Solution: 80

Exercise: Need Test C rating (% disease control) of COC(=O)c1ccc(=O)n(Cc2ccc(-c3noc(C(F)(F)F)n3)cc2)c1 , thanks.
Solution: 100

Exercise: Need Test C rating (% disease control) of O=C(NCCOC(F)(F)F)c1coc(Cc2ccc(-c3noc(C(F)(F)F)n3)cc2)n1 , thanks.
Solution: 99

Exercise: Need Test C rating (% disease control) of CCOC(=O)c1ccc(Cc2ccc(-c3noc(C(F)(F)F)n3)cc2)cc1 , thanks.
Solution: 0

Exercise: Need Test C rating (% disease control) of Cc1ccc(C(O)c2ccc(-c3noc(C(F)(F)F)n3)cc2)cc1 (centres unmarked) , thanks.
Solution: 0

Exercise: Need Test C rating (% disease control) of O=C(NCc1ccccc1)c1cnn(Cc2ccc(-c3noc(C(F)(F)F)n3)cc2)c1 , thanks.
Solution: 100

Exercise: Need Test C rating (% disease control) of N#Cc1cnn(CCCc2ccc(-c3noc(C(F)(F)F)n3)cc2)c1 , thanks.
Solution: 74

Exercise: Need Test C rating (% disease control) of COc1ccn(Cc2ccc(-c3noc(C(F)(F)F)n3)cc2)c(=O)c1 , thanks.
Solution: 100

Exercise: Need Test C rating (% disease control) of CCOC(=O)c1csc(COc2ccc(-c3noc(C(F)(F)F)n3)cc2)n1 , thanks.
Solution: 68

* * *

System: Phakopsora pachyrhizi
Assay: Test A: test suspension sprayed on soybean seedlings, inoculated next day with Phakopsora pachyrhizi (Asian soybean rust), visual disease rating
Type: in vivo
Conditions: Rate 10 ppm test suspension, relative to the controls
From the text: General protocol for preparing test suspensions for Tests A-C: the test compounds were first dissolved in acetone in an amount equal to 3% of the final volume and then suspended at the desired concentration (in ppm) in acetone and purified water (50/50 mix by volume) containing 250 ppm of the surfactant PEG400 (polyhydric alcohol esters). The resulting test suspensions were then used in Tests A-C. The test suspension was sprayed to the point of run-off on soybean seedlings. […]
quantity: Test A rating (% disease control) (%)
Return type: number; implicit unit %.

Exercise: Under Phakopsora pachyrhizi: Test A rating (% disease control) value of Cc1ccccc1C(O)c1ccc(-c2noc(C(F)(F)F)n2)cc1 (racemic) ?
Solution: 100

Exercise: Under Phakopsora pachyrhizi: Test A rating (% disease control) value of CCOC(=O)c1ccc(Cc2ccc(-c3noc(C(F)(F)F)n3)cc2)cc1 ?
Solution: 92

Exercise: Under Phakopsora pachyrhizi: Test A rating (% disease control) value of O=C(NCCC(F)(F)F)c1csc(COc2ccc(-c3noc(C(F)(F)F)n3)cc2)n1 ?
Solution: 77

Exercise: Under Phakopsora pachyrhizi: Test A rating (% disease control) value of CCOC(=O)c1cn(Cc2ccc(-c3noc(C(F)(F)F)n3)cc2)c(=O)cn1 ?
Solution: 96

Exercise: Under Phakopsora pachyrhizi: Test A rating (% disease control) value of O=C(OCC1CC1)c1cnn(Cc2ccc(-c3noc(C(F)(F)F)n3)cc2)c1 ?
Solution: 100

Exercise: Under Phakopsora pachyrhizi: Test A rating (% disease control) value of C=C(C#N)COC(=O)c1cnn(Cc2ccc(-c3noc(C(F)(F)F)n3)cc2)c1 ?
Solution: 100

Exercise: Under Phakopsora pachyrhizi: Test A rating (% disease control) value of CCOC(CC(=O)c1cnn(Cc2ccc(-c3noc(C(F)(F)F)n3)cc2)c1)OCC ?
Solution: 100

Exercise: Under Phakopsora pachyrhizi: Test A rating (% disease control) value of COCC(COC)NC(=O)c1csc(Cc2ccc(-c3noc(C(F)(F)F)n3)cc2)n1 ?
Solution: 100

* * *

Tested on: Puccinia recondita f. sp. tritici
Experiment: Test C: test suspension sprayed on wheat seedlings, inoculated next day with Puccinia recondita f. sp. tritici (wheat leaf rust), visual disease rating
Assay type: in vivo
Conditions: Rate 10 ppm test suspension, relative to the controls
Would you kindly list Test C rating (% disease control) for each of these molecules?
Return type: number; implicit unit %.

Exercise: Need Test C rating (% disease control) of O=C(OCCCCl)c1cnn(Cc2ccc(-c3noc(C(F)(F)F)n3)cc2)c1 , thanks.
Solution: 100

Exercise: Need Test C rating (% disease control) of O=C(NCC=C(Cl)Cl)c1coc(Cc2ccc(-c3noc(C(F)(F)F)n3)cc2)n1 , thanks.
Solution: 99

Exercise: Need Test C rating (% disease control) of C=C(Cl)COC(=O)c1cnn(Cc2ccc(-c3noc(C(F)(F)F)n3)cc2)c1 , thanks.
Solution: 100

Exercise: Need Test C rating (% disease control) of CCC(C)OC(=O)c1cnn(Cc2ccc(-c3noc(C(F)(F)F)n3)cc2)c1 (centres unmarked) , thanks.
Solution: 100

Exercise: Need Test C rating (% disease control) of FC(F)(F)c1nc(-c2ccc(Cn3ncc4c(I)ccnc43)cc2)no1 , thanks.
Solution: 86

Exercise: Need Test C rating (% disease control) of CC(=O)Nc1cnn(Cc2ccc(-c3noc(C(F)(F)F)n3)cc2)c1 , thanks.
Solution: 9

Exercise: Need Test C rating (% disease control) of CCOC(CC(=O)c1cnn(Cc2ccc(-c3noc(C(F)(F)F)n3)cc2)c1)OCC , thanks.
Solution: 100

Exercise: Need Test C rating (% disease control) of Nc1nn(Cc2ccc(-c3noc(C(F)(F)F)n3)cc2)c2ncccc12 , thanks.
Solution: 86

* * *

Would you kindly list Test B rating (% disease control) for each of these compounds?
Tested on: Zymoseptoria tritici
Assay: Test B: test suspension sprayed on wheat seedlings, inoculated next day with Zymoseptoria tritici (wheat leaf blotch), visual disease rating
Format: in vivo
Details: 250 ppm test suspension, relative to the controls
Marks after values point to notes of the source that are not given here.

Exercise: Need Test B rating (% disease control) of O=C(NCC(F)(F)F)c1csc(COc2ccc(-c3noc(C(F)(F)F)n3)cc2)n1 , thanks.
Solution: 0* %

Exercise: Need Test B rating (% disease control) of O=C(NCCn1cccn1)c1csc(COc2ccc(-c3noc(C(F)(F)F)n3)cc2)n1 , thanks.
Solution: 15* %

Exercise: Need Test B rating (% disease control) of O=C(NCCOC(F)(F)F)c1coc(Cc2ccc(-c3noc(C(F)(F)F)n3)cc2)n1 , thanks.
Solution: 77* %

Exercise: Need Test B rating (% disease control) of COC(=O)c1coc(Cc2ccc(-c3noc(C(F)(F)F)n3)cc2)c1 , thanks.
Solution: 65* %

Exercise: Need Test B rating (% disease control) of O=C(NCC(F)(F)F)c1coc(COc2ccc(-c3noc(C(F)(F)F)n3)cc2)n1 , thanks.
Solution: 0* %

Exercise: Need Test B rating (% disease control) of COC(=O)c1coc(COc2ccc(-c3noc(C(F)(F)F)n3)cc2)n1 , thanks.
Solution: 47* %

Exercise: Need Test B rating (% disease control) of N#CCNC(=O)c1csc(COc2ccc(-c3noc(C(F)(F)F)n3)cc2)n1 , thanks.
Solution: 28* %

Exercise: Need Test B rating (% disease control) of COCCNC(=O)c1csc(COc2ccc(-c3noc(C(F)(F)F)n3)cc2)n1 , thanks.
Solution: 65* %

Exercise: Need Test B rating (% disease control) of CCNC(=O)c1csc(Cc2ccc(-c3noc(C(F)(F)F)n3)cc2)n1 , thanks.
Solution: 99* %

Exercise: Need Test B rating (% disease control) of OC(c1ccc(F)cc1)c1ccc(-c2noc(C(F)(F)F)n2)cc1 (racemic) , thanks.
Solution: 5* %

Exercise: Need Test B rating (% disease control) of CCOC(=O)c1ccc(Cc2ccc(-c3noc(C(F)(F)F)n3)cc2)cc1 , thanks.
Solution: 50* %

Exercise: Need Test B rating (% disease control) of COC(=O)c1cnc(Oc2ccc(-c3noc(C(F)(F)F)n3)cc2)s1 , thanks.
Solution: 59* %

Exercise: Need Test B rating (% disease control) of O=C(NCCC(F)(F)F)c1csc(Cc2ccc(-c3noc(C(F)(F)F)n3)cc2)n1 , thanks.
Solution: 82* %

Exercise: Need Test B rating (% disease control) of COCC(COC)NC(=O)c1csc(Cc2ccc(-c3noc(C(F)(F)F)n3)cc2)n1 , thanks.
Solution: 92* %

Exercise: Need Test B rating (% disease control) of Cc1ccccc1C(O)c1ccc(-c2noc(C(F)(F)F)n2)cc1 (racemic) , thanks.
Solution: 5* %

Exercise: Need Test B rating (% disease control) of CN(C)C(=O)C1=NOC(CN2CCC(c3noc(C(F)(F)F)n3)CC2)C1 (stereo not shown) , thanks.
Solution: 9* %

Exercise: Need Test B rating (% disease control) of O=C(NCCC(F)(F)F)c1coc(COc2ccc(-c3noc(C(F)(F)F)n3)cc2)n1 , thanks.
Solution: 6* %

Exercise: Need Test B rating (% disease control) of COC(=O)c1csc(Cc2ccc(-c3noc(C(F)(F)F)n3)cc2)c1 , thanks.
Solution: 66* %

Exercise: Need Test B rating (% disease control) of O=C(NCCn1cccn1)c1coc(COc2ccc(-c3noc(C(F)(F)F)n3)cc2)n1 , thanks.
Solution: 3* %
